# Tested on: KRas Q61H mutant
# ASSAY: Ras GTP binding domain inhibition assay (Cy3-GTP/Cy5-GTP competition)
# Parameters: species or system human
# MEASUREMENT CONDITIONS: 20 μM; without SOS (Table 7A)
EXPERIMENTAL ENDPOINT: KRas Q61H mutant: % inh.

[[record]]
molecule = "Cc1c(-c2ccn(C)n2)sc2nc(-c3nccn3C)nc(NCCOC(=O)N(C)C)c12 [drawing 918]"
data_value = "C (51-75% inhibition)"

[[record]]
molecule = "CO[C@H]1C[C@@H](Nc2nc(-c3nccn3C)nc3sc(-c4ccn(C)n4)c(C)c23)C1 [drawing 914]"
data_value = "C (51-75% inhibition)"

[[record]]
molecule = "CO[C@H]1C[C@@H](Nc2nc(-c3ccccn3)nc3sccc23)C1 [drawing 902]"
data_value = "D (76-100% inhibition)"

[[record]]
molecule = "COC1CCN(C(=O)c2sc3nc(-c4nccn4C)nc(N[C@H]4C[C@@H](OC)C4)c3c2-c2ccccc2)C1 (stereo partly shown) [drawing 923]"
data_value = "C (51-75% inhibition)"

[[record]]
molecule = "COc1cccc(-c2sc3nc(-c4nccn4C)nc(N[C@@H]4CC[C@H](OC)C4)c3c2C)c1F [drawing 894]"
data_value = "C (51-75% inhibition)"

[[record]]
molecule = "CN(C)CCOCCNc1nc(-c2nccn2C)nc2sc(-c3ccn(C)n3)c(-c3ccccc3)c12 [drawing 907]"
data_value = "C (51-75% inhibition)"

[[record]]
molecule = "Cn1ccc(-c2sc3nc(-c4nccn4C)nc(O)c3c2-c2ccccc2)n1 [drawing 904]"
data_value = "C (51-75% inhibition)"

[[record]]
molecule = "COc1cccc(Cn2ccnc2-c2nc(O)c3scc(-c4ccc(OCC(C)C)nc4)c3n2)c1 [drawing 900]"
data_value = "C (51-75% inhibition)"

[[record]]
molecule = "CC(C)COc1ccc(-c2csc3c(O)nc(-c4nccn4Cc4ccccn4)nc23)cn1 [drawing 899]"
data_value = "C (51-75% inhibition)"

[[record]]
molecule = "CO[C@H]1CC[C@@H](Nc2nc(-c3nccn3C)nc3sc(C(=O)NC(C)C)c(-c4ccccc4)c23)C1 [drawing 924]"
data_value = "D (76-100% inhibition)"

[[record]]
molecule = "COc1c(F)cccc1-c1sc2nc(-c3nccn3C)nc(N[C@@H]3CC[C@H](OC)C3)c2c1-c1ccccc1 [drawing 887]"
data_value = "D (76-100% inhibition)"

[[record]]
molecule = "CO[C@H]1CC[C@@H](Nc2nc(-c3nccn3C)nc3sc(-c4ccn(C(C)C)n4)c(-c4ccccc4)c23)C1 [drawing 912]"
data_value = "D (76-100% inhibition)"

[[record]]
molecule = "CO[C@H]1C[C@@H](Nc2nc(-c3nccn3C)nc3sc(C(=O)NC(C)C)c(-c4ccccc4)c23)C1 [drawing 920]"
data_value = "D (76-100% inhibition)"

[[record]]
molecule = "CO[C@H]1C[C@@H](Nc2nc(-c3nccn3C)nc3sccc23)C1 [drawing 903]"
data_value = "D (76-100% inhibition)"


====

# Test system: KRas wild type
# ASSAY: Ras GTP binding domain inhibition assay (Cy3-GTP/Cy5-GTP competition)
# Design: species or system human
# MEASUREMENT CONDITIONS: 20 μM; with SOS (Table 7A)
EXPERIMENTAL ENDPOINT: KRas wild type + SOS: % inh.

[[record]]
compound = "Cc1c(-c2ccn(C)n2)sc2nc(-c3nccn3C)nc(NCCOC(=O)N(C)C)c12 [drawing 918]"
data_value = "D (76-100% inhibition)"

[[record]]
compound = "COc1c(F)cccc1-c1sc2nc(-c3nccn3C)nc(N[C@@H]3CC[C@H](OC)C3)c2c1-c1ccccc1 [drawing 887]"
data_value = "D (76-100% inhibition)"

[[record]]
compound = "CO[C@H]1C[C@@H](Nc2nc(-c3nccn3C)nc3sc(C(=O)N4CCOCC4)c(-c4ccccc4)c23)C1 [drawing 922]"
data_value = "C (51-75% inhibition)"

[[record]]
compound = "CO[C@H]1C[C@@H](Nc2nc(-c3nccn3C)nc3sc(-c4ccn(C)n4)c(-c4ccccc4)c23)C1.Cl"
data_value = "D (76-100% inhibition)"

[[record]]
compound = "COc1cccc(-c2sc3nc(-c4nccn4C)nc(N[C@@H]4CC[C@H](OC)C4)c3c2C)c1F [drawing 894]"
data_value = "D (76-100% inhibition)"

[[record]]
compound = "COCCn1ccnc1-c1nc(O)c2scc(-c3ccc(OCC(C)C)nc3)c2n1 [drawing 898]"
data_value = "C (51-75% inhibition)"

[[record]]
compound = "Cn1ccc(-c2sc3nc(-c4nccn4C)nc(O)c3c2-c2ccccc2)n1 [drawing 904]"
data_value = "A (1-25% inhibition)"

[[record]]
compound = "Cc1c(-c2ccn(C)n2)sc2nc(-c3nccn3C)nc(NCCCS(C)(=O)=O)c12 [drawing 916]"
data_value = "C (51-75% inhibition)"

[[record]]
compound = "CO[C@H]1CC[C@@H](Nc2nc(-c3nccn3C)nc(C(=O)N3CCc4c(O)cccc4C3)c2C)C1 [drawing 901]"
data_value = "A (1-25% inhibition)"

[[record]]
compound = "CO[C@H]1CC[C@@H](Nc2nc(-c3nccn3C)nc3sc(C(=O)N4CCOCC4)c(-c4ccccc4)c23)C1 [drawing 927]"
data_value = "C (51-75% inhibition)"


====

Below, each entry is listed with its recorded pIC50.
# Test system: PANC-1 pancreatic cancer cell line
# ASSAY: Cell proliferation assay (DAPI)
# Format: cell-based
# MEASUREMENT CONDITIONS: Homo sapiens
pIC50: −log10 of the molar value.
EXPERIMENTAL ENDPOINT: pIC50

[[record]]
molecule = "COCCCNc1nc(-c2nccn2C)nc2sc(-c3ccn(C)n3)c(-c3ccccc3)c12 [drawing 542]"
study_target = "PANC-1 pancreatic cancer cell line"
data_value = "6.00 to 6.12"

[[record]]
molecule = "COCCNc1nc(-c2nccn2C)nc2sc(-c3cccc(OC)c3Cl)c(-c3ccc(OC)cc3)c12 [drawing 562]"
study_target = "PANC-1 pancreatic cancer cell line"
data_value = "6.13 to 6.30"

[[record]]
molecule = "COCC1CCN(c2nc(-c3nccn3C)nc3sc(-c4ccn(C)n4)c(-c4ccccc4)c23)C1 (stereo not drawn) [drawing 550]"
study_target = "PANC-1 pancreatic cancer cell line"
data_value = "6.13 to 6.30"

[[record]]
molecule = "COCC(C)Nc1nc(-c2nccn2C)nc2sc(-c3cccc(OC)c3)c(-c3cscn3)c12 (stereo not drawn) [drawing 558]"
study_target = "PANC-1 pancreatic cancer cell line"
data_value = "6.00 to 6.12"

[[record]]
molecule = "COCC(C)Nc1nc(-c2nccn2C)nc2sc(-c3ccn(C)n3)c(-c3ccccc3)c12 (stereo not drawn) [drawing 544]"
study_target = "PANC-1 pancreatic cancer cell line"
data_value = "6.00 to 6.12"

[[record]]
molecule = "COC1CCN(c2nc(-c3nccn3C)nc3sc(-c4ccn(C)n4)c(-c4ccccc4)c23)C1 (stereo not drawn) [drawing 545]"
study_target = "PANC-1 pancreatic cancer cell line"
data_value = "6.00 to 6.12"


====

# Test system: KRas wild type
# ASSAY: Ras GTP binding domain inhibition assay (Cy3-GTP/Cy5-GTP competition)
# Set-up: species or system human
# MEASUREMENT CONDITIONS: 20 μM; with SOS (Table 7A)
EXPERIMENTAL ENDPOINT: KRas wild type + SOS: % inh.

[[record]]
compound = "CO[C@H]1CC[C@@H](Nc2nc(-c3nccn3C)nc3sc(C(=O)NC(C)C)c(-c4ccccc4)c23)C1 [drawing 924]"
data_value = "D (76-100% inhibition)"

[[record]]
compound = "CO[C@H]1CC[C@@H](Nc2nc(-c3nccn3C)nc3sc(-c4ccn(C(C)C)n4)c(C)c23)C1 [drawing 919]"
data_value = "D (76-100% inhibition)"


====

# STUDY TARGET: KRas G12D mutant (Homo sapiens, UniProt P01116, G12D)
# Construct: fused on or other part: His tag, used for capture on nickel-coated plates
# ASSAY: Ras GTP binding domain inhibition assay (Cy3-GTP/Cy5-GTP competition)
# MEASUREMENT CONDITIONS: at 20 μM, with SOS; read-out: KRas G12D mutant + SOS: % inh.
Below, each entry is listed with its recorded inhibition at 20 µM.
EXPERIMENTAL ENDPOINT: inhibition at 20 µM

[[record]]
compound = "CO[C@H]1C[C@@H](Nc2nc(-c3nccn3C)nc3sc(C(=O)N4CCOCC4)c(-c4ccccc4)c23)C1 [drawing 1057]"
data_value = "51 to 75%"

[[record]]
compound = "COc1cccc(-c2sc3nc(-c4nccn4C)nc(N[C@H]4C[C@@H](OC)C4)c3c2-c2ccccc2)c1F [drawing 1026]"
data_value = "51 to 75%"

[[record]]
compound = "Cn1ccnc1-c1nc(O)c(O)c(C(=O)N2CCCC2)n1 [drawing 963]"
data_value = "1 to 25%"

[[record]]
compound = "O=C(c1nc(-c2ccccn2)nc(O)c1O)N1CCCC1 [drawing 966]"
data_value = "1 to 25%"

[[record]]
compound = "CC(C)CNC(=O)c1nc(-c2ccccn2)nc(O)c1O [drawing 946]"
data_value = "1 to 25%"

[[record]]
compound = "COCCNc1nc(-c2cn(C)cn2)nc2sc(-c3cccc(OC)c3Cl)c(-c3ccc(OC)cc3)c12 [drawing 932]"
data_value = "26 to 50%"

[[record]]
compound = "Cc1c(-c2ccn(C)n2)sc2nc(-c3nccn3C)nc(NCCCS(C)(=O)=O)c12 [drawing 1051]"
data_value = "76 to 100%"

[[record]]
compound = "Oc1nc(-c2ncc3ccccn23)nc2c(-c3ccccn3)csc12 [drawing 969]"
data_value = "51 to 75%"

[[record]]
compound = "CO[C@H]1CC[C@@H](Nc2nc(-c3nccn3C)nc3sc(-c4cccc5[nH]ncc45)c(-c4ccccc4)c23)C1 [drawing 1024]"
data_value = "51 to 75%"

[[record]]
compound = "CC(C)NC(=O)c1nc(-c2nccn2C)nc(O)c1O [drawing 965]"
data_value = "26 to 50%"

[[record]]
compound = "COc1nc(-c2ccccn2)nc(Nc2cnn(C)c2)c1OC [drawing 929]"
data_value = "0%"

[[record]]
compound = "COc1c(F)cccc1-c1sc2nc(-c3nccn3C)nc(N[C@@H]3CC[C@H](OC)C3)c2c1-c1ccccc1 [drawing 1022]"
data_value = "76 to 100%"

[[record]]
compound = "COCC(C)Nc1nc(-c2nccn2C)nc2sc(-c3cccc(OC)c3)c(-c3cscn3)c12 (stereo not drawn) [drawing 990]"
data_value = "51 to 75%"

[[record]]
compound = "COc1cccc(-c2sc3nc(-c4nccn4C)nc(N[C@@H]4CC[C@H](OC)C4)c3c2C)c1F [drawing 1029]"
data_value = "51 to 75%"

[[record]]
compound = "COc1c(O)nc(-c2ccccn2)nc1Nc1ccccc1 [drawing 1015]"
data_value = "26 to 50%"


Entry source: patent US20250296938A1
